Origin of values: patent US20070055049A1

measuredTarget: HLA-A*0201 (human)
assayNotes: inhibition curve with unlabeled peptide, purified A2.1
runParameters: remark: other sources report otherwise
measurementLabel: IC50 (nM)
Response body: numeric value in nM, unit text excluded.

Problem: Fill in the blank: the reported IC50 of FLPSDFFPSV (modifications not checked) [HBc 18-27 peptide, P03146 18-27] is ____.
Result: 25
